- System: OVCAR-3 ovarian
- Measurement Notes: NCI-60 one-dose screen, 48 h (100 = growth as untreated, 0 = no growth, -100 = all killed)
- Test Parameters: 10 µM unless noted
- Procedure: Growth inhibition of the OVCAR-3 human tumor cell line is measured as a screen for anti-cancer activity. Cells are grown in 96 well plates and exposed to the test compound for 48 hours. Compounds are tested at a single concentration, which is 10^-5 M for most compounds. The reported endpoint is percent growth (GI% or GIPRCNT), where numbers from 0 - 100% represent growth inhibition, and numbers from -100% - 0 represent cell death. For example, a value of 40 represents 60% growth inhibition. […]
The panel holds about 83,000 compounds, 20% with a hit somewhere; the sample as a whole holds those more often.

Compound | growth, %
NC(=S)N/N=C/c1ccc(OCc2ccccc2)cc1 | 62.1
Cc1cc2c(cc1C)NC1=C(N2)OC(c2c3ccccc3cc3ccccc23)C1=O (stereo unspecified) | 23.3
CCOC(=O)c1cnc2ccc(Br)cc2c1Nc1cccc(S(=O)(=O)NC)c1 | 104
COC(=O)[C@@H]1CC[C@]2(C)[C@H](CC[C@@H]3O[C@@]32C)[C@@]1(C)CC(=O)c1ccoc1 | 105
CCCCCCCCCCNC(=O)CCl | 52.8
COc1cc(C2CC(=O)Nc3c2c(C)nn3-c2nc3ccccc3[nH]2)cc(OC)c1OC (stereo unspecified) | 115
CN(C)C(=O)c1cc2cnc(Nc3ccc(-c4csc5c(=O)cc(N6CCNCC6)oc45)cc3)nc2n1C1CCCC1 | 20.6
COc1cc(NC(N)=NCC(C)(C)COc2ccc(C(F)(F)F)cc2)cnc1C#N | 67.5
CCCCN(CC)CCCCCCCCCCN1CCCc2cc(OC)ccc21 | 13.6
COc1ccc2nc3cc(Cl)ccc3c(NCCNCC(O)CO)c2c1 (stereo unspecified) | 26.2
CC/C=C\C[C@H](O)C/C=C1/C(=O)C=C[C@@H]1C/C=C\CCCC(=O)NC | 4.67
Cc1cc(OCc2ccc(C(F)(F)F)cc2)c2c(c1)C(=O)C=C(NCCN1CCCC1)C2=O | 83.9
Cc1noc(C)c1-c1cc(O)cc(C(O)c2ccccc2)c1 (stereo unspecified) | 46.7
COc1cc(-c2cnc3nonc3n2)c(OC)c2c1OCO2 | 76.9
CN1CCN(Cc2ccc(NC(=O)c3[nH]ncc3Nc3ncnc4c3CCC4)cc2)CC1 | -5.87
CNc1cc2nc3cc(NC)c(C)cc3cc2cc1C | 3.6
COc1ccc(Cl)cc1Nc1nc(C(F)(F)F)ccc1C(=O)N/N=C/c1cccnc1 | 29.3
C/C(=C(/c1ccc(O)cc1)c1ccc(OCCN(C)C)cc1)c1ccccc1 | 90.2
CC(C)(C)n1cc(-c2ccnc(NCCCNS(=O)(=O)c3cccc4ccccc34)c2)c(-c2cccc(O)c2)n1 | 43.6
O=C(/C=C/c1ccc(Cl)cc1)c1ccc(O)c(CN2CCN(c3cc4c(cc3F)c(=O)c(C(=O)O)cn4C3CC3)CC2)c1 | 73.9
CCN(CC)CC(C)(C)C(=O)/C=C/c1ccccc1 | 37.7
